Settings: human gut metagenome, 24 h, 2 µM; further: call rule not given here
metric: Bacterial Biotransformation

Would you please look over these solved cases?
>>> value_measured("CCCC1O[C@@H]2C[C@H]3[C@@H]4CCC5=CC(=O)C=C[C@]5(C)[C@H]4[C@@H](O)C[C@]3(C)[C@]2(C(=O)CO)O1 (some centres not stated) [BUDESONIDE]")
"Compound metabolized"
>>> value_measured("Cc1nc(-c2ccc(OCC(C)C)c(C#N)c2)sc1C(=O)O")
"Compound metabolized"
>>> value_measured("CCC(COC(=O)c1cc(OC)c(OC)c(OC)c1)(c1ccccc1)N(C)C.O=C(O)/C=C\\C(=O)O (configuration not stated)")
"Compound metabolized"
>>> value_measured("CCCc1nn(C)c2c(=O)[nH]c(-c3cc(S(=O)(=O)N4CCN(C)CC4)ccc3OCC)nc12.O=C(O)CC(O)(CC(=O)O)C(=O)O [SILDENAFIL CITRATE]")
"Compound metabolized"
>>> value_measured("COCCc1ccc(OCC(O)CNC(C)C)cc1.COCCc1ccc(OCC(O)CNC(C)C)cc1.O=C(O)C(O)C(O)C(=O)O (configuration not stated) [METOPROLOL TARTRATE]")
"Compound NOT metabolized"
>>> value_measured("CC(CN1c2ccccc2Sc2ccccc21)N(C)C (configuration not stated)")
"Compound NOT metabolized"

Request: Which Bacterial Biotransformation reading was recorded for the molecule CC[C@@H](CO)NC(=O)[C@@H]1C=C2c3cccc4c3c(cn4C)C[C@H]2N(C)C1.O=C(O)/C=C\C(=O)O [METHYSERGIDE MALEATE] ?
Result: Compound metabolized

###

Test: The drug is tested on WLS-086 corresponding to human gut metagenome with ENA study accession number: PRJEB37062 and ENA sample accession number: ERS12561752 for biotransformation under anaerobic condition. The drug concentrations were measured over 9 timepoints collected between 0 and 24 hours of incubation by liquid-chromatography-coupled mass spectrometry (LC–MS)
Conditions: 2 µM
metric: Bacterial Biotransformation

Example compounds with recorded Bacterial Biotransformation:
>>> value_measured("NS(=O)(=O)c1cc2c(cc1Cl)N=C(CSCc1ccccc1)NS2(=O)=O [BENZTHIAZIDE]")
"Compound NOT metabolized"
>>> value_measured("O=c1[nH]c2ccccc2n1C1CCN(CCCC(c2ccc(F)cc2)c2ccc(F)cc2)CC1 [PIMOZIDE]")
"Compound metabolized"
>>> value_measured("Nc1c2c(nc3ccccc13)CCCC2")
"Compound metabolized"
>>> value_measured("Cc1nc(-c2ccc(OCC(C)C)c(C#N)c2)sc1C(=O)O")
"Compound metabolized"
>>> value_measured("Cc1nc2n(c(=O)c1CCN1CCC(c3noc4cc(F)ccc34)CC1)CCCC2O (stereo not drawn)")
"Compound metabolized"
>>> value_measured("COc1ccc2c3c1O[C@H]1C[C@@H](O)C=C[C@@]31CCN(C)C2")
"Compound metabolized"

Request: Any idea what Bacterial Biotransformation was measured for CC(C)N(CCC(C(N)=O)(c1ccccc1)c1ccccn1)C(C)C.O=P(O)(O)O (stereo not drawn) [DISOPYRAMIDE PHOSPHATE] ?
Result: Compound metabolized

Request: Recorded Bacterial Biotransformation for CN1CCC(=C2c3ccccc3CCc3cccnc32)CC1.O=C(O)/C=C\C(=O)O.O=C(O)/C=C\C(=O)O [AZATADINE MALEATE] , please?
Result: Compound NOT metabolized

###

Test: The drug is tested on WLS-007 corresponding to human gut metagenome with ENA study accession number: PRJEB37062 and ENA sample accession number: ERS12561742 for biotransformation under anaerobic condition. The drug concentrations were measured over 9 timepoints collected between 0 and 24 hours of incubation by liquid-chromatography-coupled mass spectrometry (LC–MS)
Conditions: 2 µM
metric: Bacterial Biotransformation

Solved entries (count: 4):
>>> value_measured("Cc1ccc(-c2cc(C(F)(F)F)nn2-c2ccc(S(N)(=O)=O)cc2)cc1 [CELECOXIB]")
"Compound metabolized"
>>> value_measured("CC(=O)OCC(=O)[C@@]1(O)[C@@H](C)C[C@H]2[C@@H]3CCC4=CC(=O)C=C[C@]4(C)[C@@]3(F)[C@@H](O)C[C@@]21C [BETAMETHASONE ACETATE]")
"Compound metabolized"
>>> value_measured("Cc1cn([C@H]2C[C@H](N=[N+]=[N-])[C@@H](CO)O2)c(=O)[nH]c1=O [ZIDOVUDINE]")
"Compound NOT metabolized"
>>> value_measured("Cc1ccc(S(=O)(=O)NC(=O)NN2CC3CCCC3C2)cc1 (stereo not drawn) [GLICLAZIDE]")
"Compound NOT metabolized"

Request: Need Bacterial Biotransformation of CCCC1O[C@@H]2C[C@H]3[C@@H]4CCC5=CC(=O)C=C[C@]5(C)[C@H]4[C@@H](O)C[C@]3(C)[C@]2(C(=O)CO)O1 (stereo partly drawn) [BUDESONIDE] , thanks.
Result: Compound metabolized

Request: Reported Bacterial Biotransformation, molecule Cc1ccc(/C(=C\CN2CCCC2)c2ccccn2)cc1 [TRIPROLIDINE] : ____
Result: Compound NOT metabolized

Request: Would you mind telling me what Bacterial Biotransformation value was observed for CC(C)NCC(O)COc1ccc(CCOCC2CC2)cc1 (stereo not drawn) [BETAXOLOL] ?
Result: Compound NOT metabolized

Request: Value lookup for Bacterial Biotransformation; key = CCN(CC)C(C)CN1c2ccccc2Sc2ccccc21 (stereo not drawn) [ETHOPROPAZINE]
Result: Compound metabolized
